Value source: patent US20260193293A1

Target: Sushi domains (SD1/2) protein
Assay: Fluorescence polarization (FP) competition assay with AJAP-1probe, calculated Ki
Assay type: binding
Conditions: Table 1, affinity maturation; mean ± SEM, n ≥ 3; read-out: Ki
Experimental: Fluorescence polarization (FP). FP assay was employed to determine the binding affinity of peptides in flat bottom black 384-well plates (Corning Life Science) using a Safire2 plate reader (Tecan). […] The fluorescence polarization values were measured using excitation/emission wavelengths of 530/580 nm. The instrumental Z-factor was adjusted to obtain the maximum fluorescence intensity and the G-factor was calibrated to give an initial millipolarization value of 20 mP. […]
Non-standard residues stand in square brackets, D forms with d. Residues, ends and D or L forms follow the SMILES beside them. *: point of attachment. 2Nal = N[C@@H](Cc1ccc2ccccc2c1)C(=O)O; Bn = c1ccc(C*)cc1; Sar = CNCC(=O)O
What Ki was measured for each of the following?
Report only the number, with the unit nM understood.

Inquiry: For Sushi domains (SD1/2) protein, provide Ki of CC[C@H](C)[C@H](NC(=O)[C@H](Cc1c[nH]c2ccccc12)NC(=O)[C@H](CO)NC(=O)[C@H](CC(=O)O)NC(=O)[C@H](CC(=O)O)NC(=O)[C@H](CCC(=O)O)NC(C)=O)C(=O)N[C@@H](Cc1c[nH]c2ccccc12)C(=O)N[C@@H](Cc1c[nH]c2ccccc12)C(=O)NCC(=O)N1CCC[C@H]1C(=O)N[C@H](C(=O)NCC(=O)N[C@@H](CC(=O)O)C(=O)N[C@@H](CCC(=O)O)C(=O)N[C@@H](CC(=O)O)C(N)=O)[C@@H](C)O [Peptide 27, Ac-EDDSWIWWGPTGDED-NH2] (Ac-EDDSWIWWGPTGDED-NH2) please.
Reply text: 16

Inquiry: For Sushi domains (SD1/2) protein, provide Ki of CC[C@H](C)[C@H](NC(=O)[C@H](Cc1ccccc1)NC(=O)[C@H](CCC(=O)O)NC(=O)[C@@H](NC(=O)[C@H](CCC(=O)O)NC(C)=O)[C@@H](C)O)C(=O)N[C@@H](C)C(=O)N[C@@H](Cc1c[nH]c2ccccc12)C(=O)NCC(=O)N(C)CC(=O)N[C@H](C(=O)NCC(=O)N[C@@H](CC(=O)O)C(=O)N[C@@H](CCC(=O)O)C(=O)N[C@@H](CC(=O)O)C(N)=O)[C@@H](C)O [Peptide 38] (Ac-ETEFIAWG[Sar]TGDED-NH2) please.
Reply text: 32

Inquiry: For Sushi domains (SD1/2) protein, provide Ki of CC[C@H](C)[C@H](NC(=O)[C@H](Cc1c[nH]c2ccccc12)NC(=O)[C@H](CO)NC(=O)[C@H](CC(=O)O)NC(=O)[C@H](CC(=O)O)NC(=O)[C@H](CCC(=O)O)NC(C)=O)C(=O)N[C@@H](CC(=O)O)C(=O)N[C@@H](Cc1c[nH]c2ccccc12)C(=O)N[C@@H](Cc1ccc(O)cc1)C(=O)NCC(=O)N[C@@H](C)C(=O)N[C@@H](CC(=O)O)C(=O)N[C@H](C(=O)N[C@@H](CC(=O)O)C(N)=O)[C@@H](C)O [Peptide 30] (Ac-EDDSWIDWYGADTD-NH2) please.
Reply text: 11

Inquiry: For Sushi domains (SD1/2) protein, provide Ki of CC[C@H](C)[C@H](NC(=O)[C@H](Cc1ccc2ccccc2c1)NC(=O)[C@H](CC(=O)O)NC(=O)[C@H](CC(=O)O)NC(=O)[C@H](CC(=O)O)NC(=O)[C@H](CCC(=O)O)NC(C)=O)C(=O)N[C@@H](CC(=O)O)C(=O)N[C@@H](Cc1c[nH]c2ccccc12)C(=O)NCC(=O)N1CCC[C@H]1C(=O)N[C@H](C(=O)N[C@@H](CO)C(=O)N[C@@H](CC(=O)O)C(=O)N[C@@H](CC(=O)O)C(=O)N[C@@H](CC(=O)O)C(N)=O)[C@@H](C)O [Peptide 21] (Ac-EDDD[2Nal]IDWGPTSDDD-NH2) please.
Reply text: 5.3

Inquiry: For Sushi domains (SD1/2) protein, provide Ki of CC[C@H](C)[C@H](NC(=O)[C@H](Cc1ccc(OCc2ccccc2)cc1)NC(=O)[C@H](CC(=O)O)NC(=O)[C@H](CC(=O)O)NC(=O)[C@H](CC(=O)O)NC(=O)[C@H](CCC(=O)O)NC(C)=O)C(=O)N[C@@H](CC(=O)O)C(=O)N[C@@H](Cc1c[nH]c2ccccc12)C(=O)NCC(=O)N1CCC[C@H]1C(=O)N[C@H](C(=O)N[C@@H](CO)C(=O)N[C@@H](CC(=O)O)C(=O)N[C@@H](CC(=O)O)C(=O)N[C@@H](CC(=O)O)C(N)=O)[C@@H](C)O [Peptide 35] (Ac-EDDDY(Bn)IDWGPTSDDD-NH2) please.
Reply text: 9.5
